Tested on: ATP;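 further: ATP exposure 15 min at 22 °C before imaging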
Test: switch fluorescence ratio, 500 uM ATP over buffer (Cy3 cluster intensity, sum of 5 cycles each) (fold (ratio)); higher = stronger signal-on switching upon ATP binding; sequences stand for … in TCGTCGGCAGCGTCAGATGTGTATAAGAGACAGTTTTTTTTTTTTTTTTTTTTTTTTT…TC
Details: aptamer strand: ATP DNA aptamer (quencher-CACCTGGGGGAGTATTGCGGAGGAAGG + anchor), 100 nM annealed; ATP concentration: 500 uM
READOUT KIND: switch fluorescence ratio
Output: the number by itself.

Worked cases, answers included:
sequence_input=TTCAGGGGAG assay_system=ATP numeric_readout=0.975
sequence_input=ATAATGATTG assay_system=ATP numeric_readout=0.994
sequence_input=AGAGTCATGG assay_system=ATP numeric_readout=1
sequence_input=AGTGCATTCT assay_system=ATP numeric_readout=0.995
sequence_input=TAATTCACCA assay_system=ATP numeric_readout=1.18

Requested field: switch fluorescence ratio. Item: "TAGGAATCCA" 0.999

Please answer likewise for "TTAGGGATAC" 1.88

Please answer likewise for "AGCGGGTTG" 1.02

Please answer likewise for "CTGGGGTGGC" 1.03

Please answer likewise for "GTTTTTTATA" 0.995

* * *

Tested on: ATP;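 further: ATP exposure 15 min at 22 °C before imaging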
Assay: switch fluorescence ratio, 500 uM ATP over buffer (Cy3 cluster intensity, sum of 5 cycles each) (fold (ratio)); higher = stronger signal-on switching upon ATP binding; sequences stand for … in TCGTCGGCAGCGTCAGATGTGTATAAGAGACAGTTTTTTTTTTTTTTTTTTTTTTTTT…TC
Settings: aptamer strand: ATP DNA aptamer (quencher-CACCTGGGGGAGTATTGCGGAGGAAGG + anchor), 100 nM annealed; ATP concentration: 500 uM
READOUT KIND: switch fluorescence ratio
Output: the number by itself.

Worked cases, answers included:
sequence_input=CGTGTCGCCT readout_kind="switch fluorescence ratio" numeric_readout=1.01
sequence_input=TATGTCGGCG readout_kind="switch fluorescence ratio" numeric_readout=0.991
sequence_input=ACCGTCAGGT readout_kind="switch fluorescence ratio" numeric_readout=1

// fetch ATP switch fluorescence ratio for "CTTGGGGGGT" 0.976

Please answer likewise for "ATTTTGCTCT" 1.02

Please answer likewise for "ATTTGATTCG" 1.01

* * *

Tested on: ATP;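 further: ATP exposure 15 min at 22 °C before imaging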
Assay: switch fluorescence ratio, 500 uM ATP over buffer (Cy3 cluster intensity, sum of 5 cycles each) (fold (ratio)); higher = stronger signal-on switching upon ATP binding; sequences stand for … in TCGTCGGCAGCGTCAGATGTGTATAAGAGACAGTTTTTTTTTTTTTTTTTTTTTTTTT…TC
Conditions: aptamer strand: ATP DNA aptamer (quencher-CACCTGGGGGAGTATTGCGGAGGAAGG + anchor), 100 nM annealed; ATP concentration: 500 uM
READOUT KIND: switch fluorescence ratio
Output: the number by itself.

sequence_input=TTCCTTTTAC numeric_readout=1.16
sequence_input=GCTTACTGTG numeric_readout=1.01
sequence_input=CCTGCATGTG numeric_readout=1.26

Requested field: switch fluorescence ratio. Item: "TAGATTGTTT" 0.998

Please answer likewise for "TGGGGGTTGT" 0.987

Please answer likewise for "TGCTGTGTAC" 1.08

Please answer likewise for "AGGTCCGCGA" 2.62

Please answer likewise for "AGTCTGGGGA" 0.99

Please answer likewise for "GCGCTGGGTG" 1.11
